Source listed as PubChem BioAssay AID1645865.

- Experimental System: Ubiquitin carboxyl-terminal hydrolase 30 (Homo sapiens) (UniProt Q70CQ3)
- Sequence (Q70CQ3 whole entry, looked up): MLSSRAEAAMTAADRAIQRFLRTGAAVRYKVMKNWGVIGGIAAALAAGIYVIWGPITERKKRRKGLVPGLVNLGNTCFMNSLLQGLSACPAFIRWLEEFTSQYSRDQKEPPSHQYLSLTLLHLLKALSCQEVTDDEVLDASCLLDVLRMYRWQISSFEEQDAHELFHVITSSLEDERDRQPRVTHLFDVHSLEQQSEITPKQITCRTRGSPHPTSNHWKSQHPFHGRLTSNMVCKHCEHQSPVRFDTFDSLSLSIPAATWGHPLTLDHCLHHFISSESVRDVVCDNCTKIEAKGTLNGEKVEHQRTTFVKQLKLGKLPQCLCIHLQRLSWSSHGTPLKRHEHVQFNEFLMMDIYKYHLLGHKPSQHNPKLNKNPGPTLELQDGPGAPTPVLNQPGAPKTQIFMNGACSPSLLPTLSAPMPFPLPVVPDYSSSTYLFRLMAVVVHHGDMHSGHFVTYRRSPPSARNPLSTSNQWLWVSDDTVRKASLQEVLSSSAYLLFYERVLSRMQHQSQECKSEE
- Experiment Summary: inhibitors of ubiquitin-specific protease 30 deubiquitylating enzyme, concentration dependence, in vitro biochemical, validation of primary hits (AID 1645865)
- Test Conditions: purified USP30, Ub-rhodamine cleavage, fluorescence, 2 h
The source made the active and inactive calls.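 The calls were made as follows: active = maximal inhibition of the USP30 enzyme reaching 30% or more across the dose series; inactive = the rest.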
// one of class 1 for active, class 0 for inactive, no free text

Example entries begin here.
CC(C)(C)c1ccc(C(=O)Nc2ccc(Oc3cccnc3)nc2)cc1    class 0
O=C1Nc2ccccc2C(=O)C1C(c1ccc(Cl)cc1)C1C(=O)Nc2ccccc2C1=O (stereo not given)    class 0
Cc1ccc(C2c3c(-c4ccccc4O)n[nH]c3C(=O)N2Cc2ccco2)cc1 (stereo not given)    class 1
O=C(COC(=O)c1cc(Cl)c2c(c1)OCO2)Nc1ccc2[nH]c(=O)[nH]c2c1    class 0
Cc1nnc(-c2nnc(NCc3ccc(Cl)cc3)c3ccccc23)o1    class 0

[Q] Call for entry `O=C(Nc1nc2c(ccc3ccccc32)s1)c1cccc(Br)c1` :
[A] class 1

[Q] Call for entry `Cc1cccc(NC(=O)Cn2c(-c3cnccn3)nc(C)c(C)c2=O)c1C` :
[A] class 0

[Q] Call for entry `Cc1cc(C)c2cc3c(nc2c1)OC(=O)N(Cc1ccco1)C3` :
[A] class 1

[Q] Call for entry `Fc1cccc(-n2cc(-c3noc(-c4ccc[nH]4)n3)nn2)c1` :
[A] class 0

[Q] Call for entry `CCN(CC)c1nc(F)c2c(c1F)S(=O)(=O)CCN2Cc1cccnc1` :
[A] class 0

* * *

- Experimental System: Ubiquitin carboxyl-terminal hydrolase 30 (Homo sapiens)
- Experiment Summary: inhibitors of ubiquitin-specific protease 30 deubiquitylating enzyme, concentration dependence, in vitro biochemical, validation of primary hits (AID 1645865)
- Test Conditions: purified USP30, Ub-rhodamine cleavage, fluorescence, 2 h
Calls of active or inactive are those of the source.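 Rule for the calls: active = maximal inhibition of the USP30 enzyme reaching 30% or more across the dose series; inactive = the rest.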
// one of active, inactive, no free text

CSc1ncccc1C(=O)NC1(O)C(=O)c2ccccc2C1=O    active
CC(C)NS(=O)(=O)c1ccc(CCC(=O)Nc2ccc3c(c2)OCCO3)cc1    active
O=C(CSc1cn(Cc2ccccc2)c2ccccc12)Nc1ccc2c(c1)OCCO2    inactive
Cc1ccc2nc(N3CCc4ccccc4C3)c3nncn3c2c1    inactive
O=C(c1cccnc1)N1CCC2(CC1)CC1(CO2)Nc2ccccc2-n2cccc21 (stereo unspecified)    inactive

[Q] Call for entry COc1ccccc1C(=O)NCC(c1ccc2c(c1)CCCN2C)N1CCCC1 (stereo unspecified) :
[A] inactive

* * *

- Experimental System: Ubiquitin carboxyl-terminal hydrolase 30 (Homo sapiens) (UniProt Q70CQ3)
- Experiment Summary: inhibitors of ubiquitin-specific protease 30 deubiquitylating enzyme, concentration dependence, in vitro biochemical, validation of primary hits (AID 1645865)
- Test Conditions: purified USP30, Ub-rhodamine cleavage, fluorescence, 2 h
Activity calls are given as the source filed them.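 Rule for the calls: active = maximal inhibition of the USP30 enzyme reaching 30% or more across the dose series; inactive = the rest.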
// one of active, inactive, no free text

[Q] Call for entry `O=C(CSc1nncc2ccccc12)Nc1ccc2c(c1)OCO2` :
[A] inactive

[Q] Call for entry `Cc1c(CC(=O)N2CCN(c3ncccn3)CC2)c(=O)oc2cc(O)ccc12` :
[A] active

[Q] Call for entry `O=C(Nc1nc2c(s1)COCC2)c1cc(-c2ccco2)[nH]n1` :
[A] inactive

[Q] Call for entry `COc1cccc(NC(=O)c2cnc3c(c2)c(=O)n(C)c(=O)n3C)c1` :
[A] active
